- protocol.conditions: in ethylene glycol, 298.15 K
value.type: solubility (mole fraction)
// print number alone

Kindly indicate its recorded solubility (mole fraction). Item: `CC1=C[C@H](O)CC(C)(C)[C@H]1/C=C/C(C)=C/C=C/C(C)=C/C=C/C=C(C)/C=C/C=C(C)/C=C/C1=C(C)C[C@@H](O)CC1(C)C`
4.43e-07

###

- protocol.conditions: in isopropanol, 288.15 K
value.type: solubility (mole fraction)
// print number alone

Kindly indicate its recorded solubility (mole fraction). Item: `CC1=C[C@H](O)CC(C)(C)[C@H]1/C=C/C(C)=C/C=C/C(C)=C/C=C/C=C(C)/C=C/C=C(C)/C=C/C1=C(C)C[C@@H](O)CC1(C)C`
1.1e-06

###

- protocol.conditions: in ethylene glycol, 278.15 K
value.type: solubility (mole fraction)

Kindly indicate its recorded solubility (mole fraction). Item: `CC1=C[C@H](O)CC(C)(C)[C@H]1/C=C/C(C)=C/C=C/C(C)=C/C=C/C=C(C)/C=C/C=C(C)/C=C/C1=C(C)C[C@@H](O)CC1(C)C`
2.68e-07

###

- protocol.conditions: in ethylene glycol, 313.15 K
value.type: solubility (mole fraction)
// print number alone

Kindly indicate its recorded solubility (mole fraction). Item: `CC1=C[C@H](O)CC(C)(C)[C@H]1/C=C/C(C)=C/C=C/C(C)=C/C=C/C=C(C)/C=C/C=C(C)/C=C/C1=C(C)C[C@@H](O)CC1(C)C`
7.13e-07

###

- protocol.conditions: in ethanol, 303.15 K
value.type: solubility (mole fraction)
// print number alone

Kindly indicate its recorded solubility (mole fraction). Item: `CC1=C[C@H](O)CC(C)(C)[C@H]1/C=C/C(C)=C/C=C/C(C)=C/C=C/C=C(C)/C=C/C=C(C)/C=C/C1=C(C)C[C@@H](O)CC1(C)C`
3.75e-05

###

- protocol.conditions: in isopropanol, 283.15 K
value.type: solubility (mole fraction)
// print number alone

Kindly indicate its recorded solubility (mole fraction). Item: `CC1=C[C@H](O)CC(C)(C)[C@H]1/C=C/C(C)=C/C=C/C(C)=C/C=C/C=C(C)/C=C/C=C(C)/C=C/C1=C(C)C[C@@H](O)CC1(C)C`
1.03e-06

###

- protocol.conditions: in ethylene glycol, 323.15 K
value.type: solubility (mole fraction)
// print number alone

Kindly indicate its recorded solubility (mole fraction). Item: `CC1=C[C@H](O)CC(C)(C)[C@H]1/C=C/C(C)=C/C=C/C(C)=C/C=C/C=C(C)/C=C/C=C(C)/C=C/C1=C(C)C[C@@H](O)CC1(C)C`
9.61e-07

###

- protocol.conditions: in isopropanol, 293.15 K
value.type: solubility (mole fraction)

Kindly indicate its recorded solubility (mole fraction). Item: `CC1=C[C@H](O)CC(C)(C)[C@H]1/C=C/C(C)=C/C=C/C(C)=C/C=C/C=C(C)/C=C/C=C(C)/C=C/C1=C(C)C[C@@H](O)CC1(C)C`
1.18e-06

###

- protocol.conditions: in ethylene glycol, 288.15 K
value.type: solubility (mole fraction)
// print number alone

Kindly indicate its recorded solubility (mole fraction). Item: `CC1=C[C@H](O)CC(C)(C)[C@H]1/C=C/C(C)=C/C=C/C(C)=C/C=C/C=C(C)/C=C/C=C(C)/C=C/C1=C(C)C[C@@H](O)CC1(C)C`
3.48e-07

###

- protocol.conditions: in ethanol, 318.15 K
value.type: solubility (mole fraction)
// print number alone

Kindly indicate its recorded solubility (mole fraction). Item: `CC1=C[C@H](O)CC(C)(C)[C@H]1/C=C/C(C)=C/C=C/C(C)=C/C=C/C=C(C)/C=C/C=C(C)/C=C/C1=C(C)C[C@@H](O)CC1(C)C`
6.42e-05

###

- protocol.conditions: in methanol, 303.15 K
value.type: solubility (mole fraction)

Kindly indicate its recorded solubility (mole fraction). Item: `CC1=C[C@H](O)CC(C)(C)[C@H]1/C=C/C(C)=C/C=C/C(C)=C/C=C/C=C(C)/C=C/C=C(C)/C=C/C1=C(C)C[C@@H](O)CC1(C)C`
8.41e-05

###

- protocol.conditions: in isopropanol, 313.15 K
value.type: solubility (mole fraction)
// print number alone

Kindly indicate its recorded solubility (mole fraction). Item: `CC1=C[C@H](O)CC(C)(C)[C@H]1/C=C/C(C)=C/C=C/C(C)=C/C=C/C=C(C)/C=C/C=C(C)/C=C/C1=C(C)C[C@@H](O)CC1(C)C`
1.67e-06

###

- protocol.conditions: in ethanol, 288.15 K
value.type: solubility (mole fraction)
// print number alone

Kindly indicate its recorded solubility (mole fraction). Item: `CC1=C[C@H](O)CC(C)(C)[C@H]1/C=C/C(C)=C/C=C/C(C)=C/C=C/C=C(C)/C=C/C=C(C)/C=C/C1=C(C)C[C@@H](O)CC1(C)C`
2.27e-05

###

- protocol.conditions: in ethylene glycol, 283.15 K
value.type: solubility (mole fraction)
// print number alone

Kindly indicate its recorded solubility (mole fraction). Item: `CC1=C[C@H](O)CC(C)(C)[C@H]1/C=C/C(C)=C/C=C/C(C)=C/C=C/C=C(C)/C=C/C=C(C)/C=C/C1=C(C)C[C@@H](O)CC1(C)C`
3.03e-07

###

- protocol.conditions: in ethanol, 323.15 K
value.type: solubility (mole fraction)
// print number alone

Kindly indicate its recorded solubility (mole fraction). Item: `CC1=C[C@H](O)CC(C)(C)[C@H]1/C=C/C(C)=C/C=C/C(C)=C/C=C/C=C(C)/C=C/C=C(C)/C=C/C1=C(C)C[C@@H](O)CC1(C)C`
7.72e-05

###

- protocol.conditions: in ethylene glycol, 318.15 K
value.type: solubility (mole fraction)

Kindly indicate its recorded solubility (mole fraction). Item: `CC1=C[C@H](O)CC(C)(C)[C@H]1/C=C/C(C)=C/C=C/C(C)=C/C=C/C=C(C)/C=C/C=C(C)/C=C/C1=C(C)C[C@@H](O)CC1(C)C`
8.45e-07

###

- protocol.conditions: in isopropanol, 303.15 K
value.type: solubility (mole fraction)
// print number alone

Kindly indicate its recorded solubility (mole fraction). Item: `CC1=C[C@H](O)CC(C)(C)[C@H]1/C=C/C(C)=C/C=C/C(C)=C/C=C/C=C(C)/C=C/C=C(C)/C=C/C1=C(C)C[C@@H](O)CC1(C)C`
1.39e-06

###

- protocol.conditions: in methanol, 308.15 K
value.type: solubility (mole fraction)
// print number alone

Kindly indicate its recorded solubility (mole fraction). Item: `CC1=C[C@H](O)CC(C)(C)[C@H]1/C=C/C(C)=C/C=C/C(C)=C/C=C/C=C(C)/C=C/C=C(C)/C=C/C1=C(C)C[C@@H](O)CC1(C)C`
0.000107

###

- protocol.conditions: in ethanol, 298.15 K
value.type: solubility (mole fraction)
// print number alone

Kindly indicate its recorded solubility (mole fraction). Item: `CC1=C[C@H](O)CC(C)(C)[C@H]1/C=C/C(C)=C/C=C/C(C)=C/C=C/C=C(C)/C=C/C=C(C)/C=C/C1=C(C)C[C@@H](O)CC1(C)C`
3.16e-05

###

- protocol.conditions: in ethylene glycol, 303.15 K
value.type: solubility (mole fraction)
// print number alone

Kindly indicate its recorded solubility (mole fraction). Item: `CC1=C[C@H](O)CC(C)(C)[C@H]1/C=C/C(C)=C/C=C/C(C)=C/C=C/C=C(C)/C=C/C=C(C)/C=C/C1=C(C)C[C@@H](O)CC1(C)C`
5.17e-07
